system.tested: T1, human GPC3 (human, UniProt P51654 25-563)
T1 construct: range 25-563; soluble analyte; also called soluble human GPC3; glypican 3
assay.info: SPR
reported.metric: pKd
Remember, pKd is on a log scale: it is -log10 of the molar concentration.

Here are 9 binders together with their reported answers.
# binder, pKd
data = [
    ("H0610-G1dh/none-Hi-Kn010G3/L0063-k0 (antibody, V domains shown, one-arm) VH: QVQLVQSGAEVKKPGASVKVSCKASGYTFTDYEMHWIRQPPGQGLEWIGAIDGKTPDTAYSQKFKGRVTLTADKSTSTAYMELSSLTSEDTAVYYCTRFYSYTYWGQGTLVTVSS VL: DIVMTQSPLSLPVTPGEPASISCRSSQSLVHSNRETYLHWYQQKPGQAPRLLIYKVSNRFSGVPDRFSGSGSGTDFTLKISRVEAEDVGVYYCGQGTQVPYTFGQGTKLEIK", 8.22),
    ("H0610-G1dh/none-Hi-Kn010G3/L0000-k0 (antibody, V domains shown, one-arm) VH: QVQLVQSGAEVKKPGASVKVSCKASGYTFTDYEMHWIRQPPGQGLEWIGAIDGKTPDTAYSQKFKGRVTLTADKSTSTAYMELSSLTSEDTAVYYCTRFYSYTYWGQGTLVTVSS VL: DIVMTQSPLSLPVTPGEPASISCRSSQSLVHSNRNTYLHWYQQKPGQAPRLLIYKVSNRFSGVPDRFSGSGSGTDFTLKISRVEAEDVGVYYCGQGTQVPYTFGQGTKLEIKR", 8.40),
    ("H0610-G1dh/none-Hi-Kn010G3/L0091-k0 (antibody, V domains shown, one-arm) VH: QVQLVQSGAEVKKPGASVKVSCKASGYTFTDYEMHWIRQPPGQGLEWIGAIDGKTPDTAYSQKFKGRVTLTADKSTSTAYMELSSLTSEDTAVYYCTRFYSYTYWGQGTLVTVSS VL: DIVMTQSPLSLPVTPGEPASISCRSSQSLVHSNRNTYLNWYQQKPGQAPRLLIYKVSNRFSGVPDRFSGSGSGTDFTLKISRVEAEDVGVYYCGQGTQVPYTFGQGTKLEIK", 8.27),
    ("GCH098-G1dh/none-Hi-Kn010G3/L0011-k0 (antibody, V domains shown, one-arm) VH: QVQLVQSGAEVKKPGASVTVSCKASGYTFTDYEMHWVRQAPGEGLEWMGAIDGPTPDTAYSEKFKGRVTLTADKSTSTAYMELSSLTSEDTAVYYCTRFYSYTYWGQGTLVTVSS VL: DIVMTQSPLSLPVTPGEPASISCRSSQPLVHSNRNTYLHWYQQKPGQAPRLLIYKVSNRFSGVPDRFSGSGSGTDFTLKISRVEAEDVGVYYCGQGTQVPYTFGQGTKLEIKR", 9.10),
    ("H0610-G1dh/none-Hi-Kn010G3/L0232-k0 (antibody, V domains shown, one-arm) VH: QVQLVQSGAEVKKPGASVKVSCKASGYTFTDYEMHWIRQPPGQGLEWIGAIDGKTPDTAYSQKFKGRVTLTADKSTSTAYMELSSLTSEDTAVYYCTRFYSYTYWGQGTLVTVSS VL: DIVMTQSPLSLPVTPGEPASISCRSSESLVHSNRNTYLHWYQQKPGQAPRLLIYKVSNRFSGVPDRFSGSGSGTDFTLKISRVEAEDVGVYYCGQGTQVPYTFGQGTKLEIK", 8.27),
    ("H0610-G1dh/none-Hi-Kn010G3/L0223-k0 (antibody, V domains shown, one-arm) VH: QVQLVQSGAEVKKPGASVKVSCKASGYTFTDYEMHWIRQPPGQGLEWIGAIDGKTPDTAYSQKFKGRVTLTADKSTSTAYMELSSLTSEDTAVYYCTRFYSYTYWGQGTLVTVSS VL: DIVMTQSPLSLPVTPGEPASISCRSSQSPVHSNRNTYIHWYQQKPGQAPRLLIYKVSNRLSGVPDRFSGSGSGTDFTLKISRVEAEDVGVYYCYQGTQVPYTFGQGTKLEIK", 9.32),
    ("H0610-G1dh/none-Hi-Kn010G3/L0107-k0 (antibody, V domains shown, one-arm) VH: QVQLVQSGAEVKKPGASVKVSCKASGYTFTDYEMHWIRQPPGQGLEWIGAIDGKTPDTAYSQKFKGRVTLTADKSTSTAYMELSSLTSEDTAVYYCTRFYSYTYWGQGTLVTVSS VL: DIVMTQSPLSLPVTPGEPASISCRSSQSLVHSNRNTYLHWYQQKPGQAPRLLIYKVSIRFSGVPDRFSGSGSGTDFTLKISRVEAEDVGVYYCGQGTQVPYTFGQGTKLEIK", 8.36),
    ("GCH059-G1dh/none-Hi-Kn010G3/L0000-k0 (antibody, V domains shown, one-arm) VH: QVQLVQSGAEVKKPGASVTVSCKASGYTFTDYEMHWIRQPPGEGLEWIGAIDGETPDTAYSQKFEGRVTLTADKSTSTAYMELSSLTEEDTAVYYCTRFYSYTYWGQGTLVTVSS VL: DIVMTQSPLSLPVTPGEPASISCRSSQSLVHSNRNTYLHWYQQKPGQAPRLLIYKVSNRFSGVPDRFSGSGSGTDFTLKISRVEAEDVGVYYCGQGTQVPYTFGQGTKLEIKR", 8.24),
    ("H0610-G1dh/none-Hi-Kn010G3/L0248-k0 (antibody, V domains shown, one-arm) VH: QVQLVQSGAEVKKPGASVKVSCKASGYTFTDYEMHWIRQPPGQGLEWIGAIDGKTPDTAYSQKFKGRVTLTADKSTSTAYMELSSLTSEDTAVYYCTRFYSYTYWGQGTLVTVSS VL: DIVMTQSPLSLPVTPGEPASISCRPSQSPVHSNRNTYIQWYQQKPGQAPRLLIYKVSNRFSGVPDRFSGSGSGTDFTLKISRVEAEDVGVYYCYQGTQVPYTFGQGTKLEIK", 10.26),
]

Could you now look at the following binder, please?
### Prompt Return the recorded pKd value; entry: GCH056-G1dh/none-Hi-Kn010G3/L0262-k0 (antibody, V domains shown, one-arm) VH: QVQLVQSGAEVKKPGASVTVSCKASGYTFTDYEMHWIRQPPGEGLEWIGAIDGETPDTAYSQKFEGRVTLTADKSTSTAYMELSSLTSEDTAVYYCTRFYSYTYWGQGTLVTVSS VL: DIVMTQSPLSLPVTPGEPASISCRSSQPPVHSNRNTYLHWYQQKPGQAPRLLIYKVSNRFSGVPDRFSGSGSGTDFTLKISRVEAEDVGVYYCAQGTQVPYTFGQGTKLEIK
### Response 10.92
